Molecular target: T1, Taf14FL (full length Taf14, aa 1-244) (S. cerevisiae, UniProt P35189 1-244)
T1 construct: Taf14, S. cerevisiae, UniProt P35189, aa 1-244; uniformly 15N-labelled for NMR; also called transcription initiation factor subunit 14
T1 sequence (looked up): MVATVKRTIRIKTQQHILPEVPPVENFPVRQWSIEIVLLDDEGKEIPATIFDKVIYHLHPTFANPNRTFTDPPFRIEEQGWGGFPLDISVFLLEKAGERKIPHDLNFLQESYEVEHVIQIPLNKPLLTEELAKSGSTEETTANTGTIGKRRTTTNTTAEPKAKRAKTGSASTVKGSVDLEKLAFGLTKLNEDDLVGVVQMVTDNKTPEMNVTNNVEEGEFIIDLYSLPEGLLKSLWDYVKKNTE
Assay: other fluorescence titration; tryptophan fluorescence, 25 °C; 1 μM Taf14ET or Taf14FL, increasing peptide; 50 mM Tris-HCl pH 6.8 or 7.5, 150 mM NaCl, 1 mM DTT or 0.2 mM TCEP; excitation 295 nm; apparent Kd, 1:1 stoichiometry
Details: both partners purified
parameter measured: pKd
Scale for pKd: -log10 of concentration given in mol/L; no unit attached.

binder: Ac-SEELKVRIKYDS-NH2 (Sas3 (something about silencing 3), catalytic subunit of the yeast NuA3 complex, aa 111-122; also called Sas3 peptide; source: synthetic peptide (Synpeptide)) [Sas3EBM peptide (aa 111-122 of Sas3), Ac-SEELKVRIKYDS-NH2]
measured value: 4.68

Let us move to another entry and its pKd.
Task: # input binder: Ac-EPKLLLKINLKK-NH2 (also called Yng1 peptide; source: synthetic peptide (Synpeptide)) [Yng1EBM peptide (aa 113-124 of Yng1), Ac-EPKLLLKINLKK-NH2] ; wanted: its pKd
Result: 5.96
